tested on: Lucilia cuprina larvae; assay: Lucilia cuprina test (LUCICU); format: in vivo; details: 1152 h, 100 ppm, after 48 days, read-out: activity (kill in %)
// values below are reported pest or weed control at 100 ppm
Field: numeric (%). Do not append units.

Reference set, count: 2
1) Cc1cc(Cl)cc(C(=O)NC2CCS(=O)(=O)C2)c1NC(=O)c1cc(Cn2nnc(C(F)(F)C(F)(F)F)n2)nn1-c1ncccc1Cl (stereo not drawn) [Example 37] | 100
2) Cc1cc(C#N)cc(C(=O)NC2COC2)c1NC(=O)c1cc(Cn2nnc(C(F)(F)F)n2)nn1-c1ccccc1Cl [Example 26] | 100

We next turn to a different compound, shown below.
Name the recorded pest or weed control at 100 ppm for Cc1cc(Cl)cc(C(=O)NC2CCN(Cc3ccccc3)C2)c1NC(=O)c1cc(Cn2nnc(C(F)(F)C(F)(F)F)n2)nn1-c1ncccc1Cl (stereo not drawn) [Example 33] .
100
